- target system: Recombinant human Cbl-b (aa 36-427) (Homo sapiens)
- Sequence (Q13191 36-427): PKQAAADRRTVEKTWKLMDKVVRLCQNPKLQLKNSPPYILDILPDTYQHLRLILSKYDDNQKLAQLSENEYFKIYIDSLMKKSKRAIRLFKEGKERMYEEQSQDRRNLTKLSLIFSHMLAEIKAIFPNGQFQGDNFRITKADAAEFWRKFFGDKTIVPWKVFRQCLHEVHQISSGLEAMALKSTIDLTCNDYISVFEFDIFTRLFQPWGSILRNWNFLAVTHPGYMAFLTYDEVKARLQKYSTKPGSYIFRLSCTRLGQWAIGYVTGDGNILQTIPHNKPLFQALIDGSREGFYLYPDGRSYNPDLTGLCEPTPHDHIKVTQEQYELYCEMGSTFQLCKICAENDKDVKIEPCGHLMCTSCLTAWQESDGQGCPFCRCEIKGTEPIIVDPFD
- assay summary: Cbl-b Biochemical Assay (TR-FRET)
- measurement context: read-out: TR-FRET hCbl-b IC50

line notation: CCNc1cc(-c2ccccc2-c2nncn2C)cc(-n2nc3c(C(F)(F)F)cccn3c2=O)n1
IC50: 10000 to 50000 nM

line notation: Cn1cnnc1-c1cc(F)ccc1-c1cccc(-c2nc3cc(CO)cc(C(F)(F)F)c3[nH]2)c1
IC50: < 200 nM

line notation: COc1cc(CN[C@@H]2CCC[C@@]2(C)O)cc2nc(-c3cccc(-c4ccc(F)cc4-c4nncn4C)c3)oc12
IC50: 200 to 1000 nM

line notation: Cn1cnnc1-c1cc(F)ccc1-c1cccc(-c2nc3cc(CNCCC(F)F)cc(C(F)(F)F)c3o2)c1
IC50: < 200 nM

line notation: Cn1cnnc1-c1cc(F)ccc1-c1cc(-c2nc3cc(CN[C@@H]4CCC[C@@H]4O)cc(F)c3o2)cc(C2CC2)c1
IC50: < 200 nM

line notation: C[C@H](c1cc(C(F)(F)F)c2oc(-c3cccc(C4(Cc5nncn5C)COC4)c3)nc2c1)N1CCC2(CC2)C1
IC50: < 200 nM

line notation: CC(C)CCNCc1cc(C(F)(F)F)c2oc(-c3cccc(-c4ccc(F)cc4-c4nncn4C)c3)nc2c1
IC50: < 200 nM

line notation: Cn1cnnc1-c1cc(F)ccc1-c1cc(-c2nc3cc(CNCC4(O)CCCC4)ccc3o2)nc(C2CC2)c1
IC50: < 200 nM

line notation: CCNc1cc(-c2ccccc2-c2nncn2C)cc(-c2nc3cccc(C(F)(F)F)c3o2)n1
IC50: 10000 to 50000 nM

line notation: Cn1cnnc1-c1cc(F)ccc1-c1cccc(-c2nc3cc(C(=O)N[C@@H]4CCC[C@@H]4O)cc(C(F)(F)F)c3o2)c1
IC50: 200 to 1000 nM

line notation: Cc1cc(CNCC(C)(C)O)cc2nc(-c3cccc(-c4ccc(F)cc4-c4nncn4C)c3)oc12
IC50: < 200 nM

line notation: COCCNCc1cc(C)c2oc(-c3cccc(-c4ccc(F)cc4-c4nncn4C)c3)nc2c1F
IC50: 200 to 1000 nM

line notation: CCNc1cc(-c2c(-c3nncn3C)cnn2C)cc(-c2nc3ccc(Br)c(C(F)(F)F)c3[nH]2)n1
IC50: 10000 to 50000 nM

line notation: C[C@H](O)CNCc1cc(F)c2oc(-c3cccc(-c4ccc(F)cc4-c4nncn4C)c3)nc2c1
IC50: < 200 nM

line notation: CN(Cc1cc(F)c2oc(-c3cc(-c4ccc(F)cc4-c4nncn4C)cc(C4CC4)n3)nc2c1)[C@@H]1CCC[C@@H]1O
IC50: < 200 nM

line notation: Cn1cnnc1-c1cc(C#N)ccc1-c1cc(-c2nc3cc(CNCC4CCC4)ccc3o2)nc(C2CC2)c1
IC50: < 200 nM

---

- Test system: Jurkat (clone E6-1) cells with NFAT luciferase reporter
- assay summary: Jurkat reporter assay (NFAT Luciferase)
- Format: cell-based
- measurement context: Homo sapiens; Jurkat NFAT luciferase reporter cells, anti-CD3 stimulation, 6 hr; read-out: Jurkat NFAT EC50
pEC50: −log10 of the molar value.
measurement label: pEC50

line notation: COc1cc(CN[C@@H]2CCC[C@@H]2OC)cc2nc(-c3cccc(-c4ccc(F)cc4-c4nncn4C)c3)oc12
reported: 5.00 to 6.00

line notation: COc1cc(CNCC2COC2)cc2nc(-c3cccc(-c4ccc(F)cc4-c4nncn4C)c3)oc12
reported: 6.00 to 6.70

line notation: C[C@H]1CCCN(Cc2cc(C(F)(F)F)c3[nH]c(-c4cccc(-c5ccccc5-c5nncn5C)c4)nc3c2)C1
reported: 5.00 to 6.00

line notation: Cn1cnnc1-c1cc(F)ccc1-c1cccc(-c2nc3cc(CN[C@@H]4CCC[C@]4(C)O)cc(C(F)(F)F)c3o2)c1
reported: > 6.70

line notation: Cn1cnnc1-c1cc(F)ccc1-c1cccc(-c2nc3cc(CN4CCCC[C@@H]4CO)cc(C(F)(F)F)c3o2)c1
reported: 6.00 to 6.70

line notation: Cn1cnnc1-c1cc(F)ccc1-c1cccc(-c2nc3cc(CNCC(C)(C)F)cc(C(F)(F)F)c3[nH]2)c1
reported: 6.00 to 6.70

line notation: Cn1cnnc1-c1cc(F)ccc1-c1cccc(-c2nc3cc(CN4CC(C)(O)C4)cc(C(F)(F)F)c3[nH]2)c1
reported: 5.00 to 6.00

---

- target system: Recombinant human Cbl-b (aa 36-427) (Homo sapiens)
- assay summary: Cbl-b Biochemical Assay (TR-FRET)
- measurement context: read-out: TR-FRET hCbl-b IC50
measurement label: IC50

line notation: Cn1cnnc1-c1cc(F)ccc1-c1cccc(-c2nc3cc(NCCC4CCC4)cc(C(F)(F)F)c3o2)c1
reported: 1000 to 10000 nM
--
line notation: Cn1cnnc1CC1(c2cccc(-c3nc4cc(CN5CCC6(CC6)C5)cc(C(F)(F)F)c4[nH]3)c2)COC1
reported: 200 to 1000 nM
--
line notation: COCCNCc1cc(F)c2oc(-c3cccc(-c4ccc(F)cc4-c4nncn4C)c3)nc2c1
reported: < 200 nM
--
line notation: Cn1cnnc1CC1(c2cccc(-c3nc4cc(CN5CCCC5)cc(C(F)(F)F)c4[nH]3)c2)COC1
reported: 200 to 1000 nM

---

Catalogue of pIC50 readings, one per entry.
- target system: Recombinant human c-Cbl (aa 47-435) (Homo sapiens, UniProt P22681)
- Sequence (P22681 47-435): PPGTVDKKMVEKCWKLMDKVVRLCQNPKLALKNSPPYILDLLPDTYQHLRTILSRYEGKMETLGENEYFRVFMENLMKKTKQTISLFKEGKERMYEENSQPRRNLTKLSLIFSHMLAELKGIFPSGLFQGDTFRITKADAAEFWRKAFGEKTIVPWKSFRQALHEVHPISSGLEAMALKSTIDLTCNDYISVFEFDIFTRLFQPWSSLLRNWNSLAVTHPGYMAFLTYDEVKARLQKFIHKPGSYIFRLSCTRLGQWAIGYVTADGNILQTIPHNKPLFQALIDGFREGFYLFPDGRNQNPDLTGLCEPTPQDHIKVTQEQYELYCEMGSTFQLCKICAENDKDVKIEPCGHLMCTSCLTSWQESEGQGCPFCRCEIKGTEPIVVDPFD
- assay summary: c-Cbl Biochemical Assay (TR-FRET)
- measurement context: hc-Cbl Biochemical Assay (TR-FRET); read-out: TR-FRET hcCbl IC50
pIC50: −log10 of the molar value.
measurement label: pIC50

line notation: Cn1cnnc1-c1cc(F)ccc1-c1cccc(-c2nc3cc(CN4CCC5(CC4)CC5)cc(C(F)(F)F)c3[nH]2)c1
target system: Recombinant human c-Cbl (aa 47-435) (Homo sapiens, UniProt P22681)
reported: 5.00 to 6.00

line notation: Cn1cnnc1-c1cc(F)ccc1-c1cccc(-c2nc3cc(CN4CC(C)(O)C4)cc(C(F)(F)F)c3o2)c1
target system: Recombinant human c-Cbl (aa 47-435) (Homo sapiens, UniProt P22681)
reported: 5.00 to 6.00

line notation: COCCNCc1cc2nc(-c3cc(-c4ccc(F)cc4-c4nncn4C)cc(C4CC4)n3)oc2c(F)c1F
target system: Recombinant human c-Cbl (aa 47-435) (Homo sapiens, UniProt P22681)
reported: > 6.70

line notation: CO[C@@H](C)CNCc1cc(C)c2oc(-c3cc(-c4ccc(F)cc4-c4nncn4C)cc(C4CC4)n3)nc2c1
target system: Recombinant human c-Cbl (aa 47-435) (Homo sapiens, UniProt P22681)
reported: > 6.70

---

- target system: Recombinant human c-Cbl (aa 47-435) (Homo sapiens)
- assay summary: c-Cbl Biochemical Assay (TR-FRET)
- measurement context: hc-Cbl Biochemical Assay (TR-FRET); read-out: TR-FRET hcCbl IC50
pIC50: −log10 of the molar value.
Catalogue of pIC50 readings, one per entry.
measurement label: pIC50

line notation: Cn1cnnc1C[C@]1(c2cccc(-c3nc4cccc(C(F)(F)F)c4o3)c2)C[C@H](C#N)C1
reported: 4.30 to 5.00

line notation: Cn1cnnc1-c1cc(F)ccc1-c1cccc(-c2nc3cc(CN[C@@H]4CCC[C@@H]4O)cc(C(F)(F)F)c3[nH]2)c1
reported: 5.00 to 6.00

line notation: COC[C@@H](C)NCc1cc(C)c2oc(-c3cc(-c4ccc(F)cc4-c4nncn4C)cc(C4CC4)n3)nc2c1
reported: 6.00 to 6.70

line notation: COc1cc(CN[C@H]2C[C@@H](O)C2)cc2nc(-c3cccc(-c4ccc(F)cc4-c4nncn4C)c3)oc12
reported: 6.00 to 6.70

line notation: Cn1cnnc1-c1cc(F)ccc1-c1cccc(-c2nc3cc(CO)cc(C(F)F)c3o2)c1
reported: 6.00 to 6.70

line notation: COCCNCc1cc(C(F)(F)F)c2oc(-c3cc(-c4ccc(F)cc4-c4nncn4C)cc(C4CC4)n3)nc2c1
reported: > 6.70

line notation: Cn1cnnc1-c1cc(F)ccc1-c1cccc(-c2nc3cc(CO)cc(C(F)(F)F)c3o2)c1
reported: 5.00 to 6.00

line notation: Cn1cnnc1-c1cc(F)ccc1-c1cccc(-c2nc3cc(CNCC4(O)CCC4)cc(C(F)(F)F)c3[nH]2)c1
reported: 5.00 to 6.00

line notation: COc1cc(CN[C@@H]2CCC[C@@H]2OC)cc2nc(-c3cccc(-c4ccc(F)cc4-c4nncn4C)c3)oc12
reported: 6.00 to 6.70

line notation: Cn1cnnc1CC1(c2cccc(-c3nc4cc(C(=O)N5CC[C@@H](O)C5)cc(C(F)(F)F)c4[nH]3)c2)COC1
reported: 4.30 to 5.00

line notation: CCOCCNCc1cc(OC)c2oc(-c3cccc(-c4ccc(F)cc4-c4nncn4C)c3)nc2c1
reported: 6.00 to 6.70

line notation: Cn1cnnc1-c1ccccc1-c1cccc(-c2nc3cccc(C(F)(F)F)n3n2)c1
reported: 4.30 to 5.00

line notation: Cn1cnnc1-c1cc(F)ccc1-c1cccc(-c2nc3cc(CO)cc(Br)c3o2)c1
reported: 6.00 to 6.70

line notation: Cn1cnnc1-c1ccccc1-c1cccc(-c2nc3cc(C(=O)O)cc(C(F)(F)F)c3o2)c1
reported: 4.30 to 5.00

line notation: Cc1cc(CNCC2CCC2)cc2nc(-c3cc(-c4ccc(F)cc4-c4nncn4C)cc(C4CC4)n3)oc12
reported: > 6.70

line notation: Cn1cnnc1-c1cc(F)ccc1-c1cccc(-c2nc3cc(CN4C[C@@H]5C[C@H]4CO5)cc(C(F)(F)F)c3o2)c1
reported: 5.00 to 6.00

line notation: Cn1cnnc1CC1(c2cccc(-c3nc4cccc(C(F)(F)F)c4s3)c2)COC1
reported: 4.30 to 5.00

line notation: Cn1cnnc1-c1cc(F)ccc1-c1cc(-c2nc3cc(CO)ccc3[nH]2)nc(C2CC2)c1
reported: 5.00 to 6.00

line notation: C[C@@H](c1cc(C(F)(F)F)c2[nH]c(-c3cccc(C4(Cc5nncn5C)COC4)c3)nc2c1)N1CCC2(CC2)C1
reported: 4.30 to 5.00

line notation: Cc1c(F)c(CN[C@@H]2CCC[C@@H]2O)cc2nc(-c3cc(-c4ccc(F)cc4-c4nncn4C)cc(C4CC4)n3)oc12
reported: > 6.70

line notation: Cn1cnnc1-c1cc(F)ccc1-c1cccc(-c2nc3cc(CNC4(CO)COC4)cc(C(F)(F)F)c3o2)c1
reported: 5.00 to 6.00

line notation: Cn1cnnc1-c1cc(F)ccc1-c1cccc(-c2nc3cc(CN4CCC5(CC4)CC5)cc(C(F)(F)F)c3o2)c1
reported: 5.00 to 6.00

line notation: Cn1cnnc1-c1cc(F)ccc1-c1ccnc(-c2nc3cc(CN[C@@H]4CCC[C@@H]4O)cc(C(F)(F)F)c3o2)c1
reported: > 6.70

line notation: C[C@H]1CCCN(Cc2cc(C(F)(F)F)c3oc(-c4cccc(-c5ccccc5-c5nncn5C)c4)nc3c2)C1
reported: 5.00 to 6.00

line notation: Cn1cnnc1-c1cc(F)ccc1-c1cc(-c2nc3cc(CN[C@@H]4CCC[C@@H]4O)cc(C(F)(F)F)c3o2)nc(C2CC2)c1
reported: > 6.70

line notation: Cn1cnnc1-c1cc(F)ccc1-c1cccc(-c2nc3cc(CN4CC(C)(O)C4)cc(C(F)(F)F)c3[nH]2)c1
reported: 5.00 to 6.00

line notation: Cn1cnnc1-c1cc(F)ccc1-c1cccc(-c2nc3cc(CN[C@H]4CCC[C@@H]4O)cc(C(F)(F)F)c3[nH]2)c1
reported: 5.00 to 6.00

line notation: Cn1cnnc1-c1cc(F)ccc1-c1cc(-c2nc3cc(CNCC4(O)CCC4)cc(C(F)(F)F)c3o2)nc(C2CC2)c1
reported: > 6.70

line notation: CON(C)C(=O)c1cc(C(F)(F)F)c2oc(-c3cccc(-c4ccc(F)cc4-c4nncn4C)c3)nc2c1
reported: 6.00 to 6.70

line notation: COCCNCc1cc2nc(-c3cccc(-c4ccc(F)cc4-c4nncn4C)c3)oc2cc1F
reported: 6.00 to 6.70
